Where a name gives a salt, the structure may show the parent alone.
Item-by-item account of melting point

{"columns": ["MOLECULE", "MEASURED_PROPERTY", "OBS_VALUE"],
 "data": [
  ["CCCCc1oc2ccccc2c1CCc1ccc(OS(=O)(=O)c2ccc(C(=O)O)c(O)c2)cc1 [Example 14]", "melting point", "93 to 95 °C"],
  ["CCCCc1oc2ccccc2c1CNc1ccc(OS(=O)(=O)c2ccc(C(=O)O)c(O)c2)cc1 [Example 15]", "melting point", "75 to 77 °C"],
  ["CCc1oc2ccccc2c1C(=O)c1cc(C(C)C)c(OS(=O)(=O)c2ccc(C(=O)O)c(O)c2)c(C(C)C)c1 [Example 4]", "melting point", "200 to 201 °C"],
  ["CC(=O)Oc1cc(S(=O)(=O)Oc2ccc(C(=O)c3c(Cc4ccccc4Br)oc(C)c3C)cc2C2CCCC2)ccc1C(=O)O [Example 25]", "melting point", "79 °C"],
  ["CCc1oc2ccccc2c1C(=O)c1cc(-c2ccccc2)c(OS(=O)(=O)c2ccc(C(=O)O)c(O)c2)c(-c2ccccc2)c1 (as salt: sodium) [Example 6]", "melting point", "211 to 212 °C"],
  ["CCc1oc2ccccc2c1C(=O)c1cc(C)c(OS(=O)(=O)c2ccc(C(=O)O)c(O)c2)c(C)c1 [Example 3]", "melting point", "166 to 167 °C"]
]}

Now for another entry.
Given the molecule CC(=O)Oc1cc(S(=O)(=O)Oc2ccc(C(=O)c3c(Cc4ccc(Br)cc4)sc(C)c3C)cc2C2CCCC2)ccc1C(=O)O [Example 24] , what is its reported melting point?
113 to 114 °C
